Catalogue of pIC50 readings, one per entry.
test system: Hepatitis B virus; experiment: Antiviral activity against HBV assessed as inhibition of viral early antigen secretion; type: functional, organism-based
pIC50: −log10 of the molar value.

Smi	pIC50
C[C@H](C[C@H](OC(=O)/C=C/c1ccccc1Cl)[C@@H](OC(=O)/C=C/c1ccccc1Cl)C(C)(C)OC(=O)/C=C/c1ccccc1Cl)C1=C2C[C@H](OC(=O)/C=C/c3ccccc3Cl)[C@H]3[C@@]4(C)CCC(=O)C(C)(C)[C@@H]4CC[C@]3(C)[C@@]2(C)CC1	< 2.85
C[C@H](C[C@H](OC(=O)c1ccccc1)[C@@H](OC(=O)c1ccccc1)C(C)(C)OC(=O)c1ccccc1)C1=C2C[C@H](OC(=O)c3ccccc3)[C@H]3[C@@]4(C)CCC(=O)C(C)(C)[C@@H]4CC[C@]3(C)[C@@]2(C)CC1	< 2.85
C[C@H](C[C@H](OC(=O)c1ccc(Cl)cc1)[C@@H](OC(=O)c1ccc(Cl)cc1)C(C)(C)OC(=O)c1ccc(Cl)cc1)C1=C2C[C@H](OC(=O)c3ccc(Cl)cc3)[C@H]3[C@@]4(C)CCC(=O)C(C)(C)[C@@H]4CC[C@]3(C)[C@@]2(C)CC1	< 2.85
C[C@H](C[C@H](OC(=O)C1CC1)[C@@H](OC(=O)C1CC1)C(C)(C)OC(=O)C1CC1)C1=C2C[C@H](OC(=O)C3CC3)[C@H]3[C@@]4(C)CCC(=O)C(C)(C)[C@@H]4CC[C@]3(C)[C@@]2(C)CC1	< 2.68
CC(=O)OC(C)(C)[C@H](OC(=O)c1ccccc1)[C@H](C[C@@H](C)C1=C2C[C@H](OC(=O)c3ccccc3)[C@H]3[C@@]4(C)CCC(=O)C(C)(C)[C@@H]4CC[C@]3(C)[C@@]2(C)CC1)OC(=O)c1ccccc1	< 2.77

###

test system: Hepatitis B virus; test: Antiviral activity against HBV assessed as inhibition of viral surface antigen secretion; type: functional, organism-based
pIC50: −log10 of the molar value.

Smi	pIC50
CC(=O)O[C@@H](C[C@@H](C)C1=C2C[C@H](OC(C)=O)[C@H]3[C@@]4(C)CCC(=O)C(C)(C)[C@@H]4CC[C@]3(C)[C@@]2(C)CC1)[C@@H](OC(C)=O)C(C)(C)OC(C)=O	5.32
C[C@H](C[C@H](OC(=O)c1ccccc1)[C@@H](OC(=O)c1ccccc1)C(C)(C)OC(=O)c1ccccc1)C1=C2C[C@H](OC(=O)c3ccccc3)[C@H]3[C@@]4(C)CCC(=O)C(C)(C)[C@@H]4CC[C@]3(C)[C@@]2(C)CC1	< 2.85
CC(=O)OC1=CC[C@@]2(C)[C@@H](CC[C@@]3(C)[C@H]2[C@@H](OC(C)=O)CC2=C([C@H](C)C[C@H](OC(C)=O)[C@@H](OC(C)=O)C(C)(C)OC(C)=O)CC[C@@]23C)C1(C)C	< 2.68
CCCC(=O)O[C@@H](C[C@@H](C)[C@]12CC[C@@]3(C)[C@@]1(C[C@H](OC(=O)CCC)[C@H]1[C@@]4(C)CCC(=O)C(C)(C)[C@@H]4CC[C@@]13C)O2)[C@@H](OC(=O)CCC)C(C)(C)OC(=O)CCC	< 2.72
C[C@H](C[C@H](OC(=O)CCC1CCCCC1)[C@@H](OC(=O)CCC1CCCCC1)C(C)(C)OC(=O)CCC1CCCCC1)C1=C2C[C@H](OC(=O)CCC3CCCCC3)[C@H]3[C@@]4(C)CCC(=O)C(C)(C)[C@@H]4CC[C@]3(C)[C@@]2(C)CC1	< 2.77
C[C@H](C[C@H](OC(=O)c1ccccc1I)[C@@H](OC(=O)c1ccccc1I)C(C)(C)OC(=O)c1ccccc1I)C1=C2C[C@H](OC(=O)c3ccccc3I)[C@H]3[C@@]4(C)CCC(=O)C(C)(C)[C@@H]4CC[C@]3(C)[C@@]2(C)CC1	< 2.85
